# protocol.text: basal 3T3-L1 adipocyte mitochondrial potential changes, profiling panel, cell-based, JC-1 fluorescence, 3T3-L1 adipocytes, 24 h, 100 nL compound (AID 1168); note: test concentration not given here
# particulars: JC-1 mitochondrial fluorescence, higher = more signal, called active from +8 up or from −8 down
measured.metric: z-score
Answer field: number only, no words.

Which z-score reading was recorded for the compound CC(C)(C)N1C(=O)[C@H]2[C@H]3[C@H](O)[C@H](O)CC(=NO[C@@H]4O[C@H](CO)[C@@H](O)[C@H](O)[C@H]4O)[C@@H]3CC[C@H]2C1=O ?
-0.404

Which z-score reading was recorded for the compound COc1ccc(O[C@H]2C=C[C@@H](c3ccccc3)O[C@@H]2CON=C[C@@H](C)[C@H](OCc2ccccc2)C(C)C)cc1 ?
0.732

Which z-score reading was recorded for the compound C#CCCCON=C1C[C@@H](O)[C@@H](O)[C@@H]2[C@@H]3C(=O)N([C@@H](C)c4ccccc4)C(=O)[C@@H]3CC[C@H]12 ?
0.114

Which z-score reading was recorded for the compound c1ccc(C2NCCc3c2[nH]c2ccccc32)cc1 (centres undefined) ?
-0.424

Which z-score reading was recorded for the compound CCCCCN1CC=CC23O[C@@H]4C=CCOC(=O)[C@@H]4[C@H]2C(=O)N(CCCCCCO)[C@@H]3C1=O (some centres undefined) ?
-0.574

Which z-score reading was recorded for the compound O=C1c2ccccc2[C@@]2(Cc3ccccc3N(C3CC3)C2=O)[C@H](c2ccc(CO)cc2)N1Cc1ccccc1C(F)(F)F ?
-0.474

Which z-score reading was recorded for the compound [N-]=[N+]=Nc1ccccc1C[C@@]1(C(N)=O)N=C(c2ccc(OCCCO)cc2)O[C@@H]1c1ccccc1 ?
-0.433

Which z-score reading was recorded for the compound C[C@@H]1C=CCC(=O)OC[C@H](C)C(=O)N2CCC[C@H]2C(=O)OC1 ?
-1.27

Which z-score reading was recorded for the compound C=C(/C(=C/C[C@H](OC(C)=O)c1ccc(OCCO)cc1)c1cnc2ccccc2c1)C(C)C ?
-0.449

Which z-score reading was recorded for the compound CO[C@H]1COC(=O)[C@H](C)COC(=O)CC=C[C@@H](C)[C@H](OC)COC(=O)CC=C[C@@H]1C ?
0.0241

Which z-score reading was recorded for the compound C=CCN1C(=O)[C@]2(O[C@H](CCn3cc(CCO)nn3)[C@@H]([Si](C)(C)c3ccc(OC)cc3)[C@@H]2C)c2cc(N3CCOC3=O)ccc21 ?
-0.0813

Which z-score reading was recorded for the compound CCCC=C(CCC)[C@@H](NC(=O)c1ccc(-c2ccccc2)cc1)c1ccc(C(=O)OC)cc1 ?
0.393

Which z-score reading was recorded for the compound CC(C)NC(=O)[C@@]1(c2ccc([N+](=O)[O-])cc2)CC(=O)N(CC23CC4CC(CC(C4)C2)C3)[C@@H]1c1ccc(CO)cc1I ?
0.402

Which z-score reading was recorded for the compound CC(C)(C)OC(=O)CC[C@]1(C(N)=O)COC(c2ccc(OCCCO)cc2)=N1 ?
-0.0265

Which z-score reading was recorded for the compound O=C1[C@H]2[C@H]3[C@H](O)[C@H](O)CC(=NOCc4ccccc4)[C@H]3CC[C@H]2C(=O)N1c1cccc(Oc2ccccc2)c1 ?
0.394

Which z-score reading was recorded for the compound COC(=O)[C@@H]1CC[C@H](C)[C@@H](c2ccc(C)cc2)N1C(=O)c1ccc(C=NOC[C@@H](O)COCc2ccco2)cc1 ?
-0.747

Which z-score reading was recorded for the compound O=C1[C@H]2[C@H]3[C@H](O)[C@H](O)CC(=NOCc4ccccc4)[C@@H]3CC[C@H]2C(=O)N1Cc1ccccc1 ?
-0.399

Which z-score reading was recorded for the compound C/C=C\[C@@H](NCc1ccccc1Br)[C@@H](O)Cc1ccccc1 ?
0.0182

Which z-score reading was recorded for the compound COc1ccc(COC(=O)NN=C2C[C@@H](O)[C@@H](O)[C@@H]3[C@@H]4C(=O)N(c5ccc(F)cc5F)C(=O)[C@@H]4CC[C@@H]23)cc1 ?
0.301

Which z-score reading was recorded for the compound CC1CC/C=C\[C@H]2OC34C=CCN(Cn5nnc6ccccc65)C(=O)[C@H]3N(CCO)C(=O)[C@@H]4C2C(=O)O1 (some centres undefined) ?
-0.798

Which z-score reading was recorded for the compound CC(C)CON=C1C[C@@H](O)[C@@H](O)[C@@H]2[C@@H]3C(=O)N(Cc4ccccc4)C(=O)[C@@H]3CC[C@@H]12 ?
-0.272

Which z-score reading was recorded for the compound CCOc1ccc(N2C(=O)/C(=C/C=C/c3ccccc3OC)S(=O)(=O)C2c2cccc([N+](=O)[O-])c2)cc1 (centres undefined) ?
-0.125

Which z-score reading was recorded for the compound COCCOC(=O)N1C(=O)[C@@]2(c3cc(C#Cc4ccc(OC)cc4)ccc31)[C@H](C(=O)N1CCN(c3ncccn3)CC1)[C@H]1C(=O)O[C@H](c3ccccc3)[C@H](c3ccccc3)N1[C@@H]2c1ccc(OCCO)cc1 ?
3.91

Which z-score reading was recorded for the compound CCOC(=O)[C@H](Cc1ccccc1)NC(=O)CCC1CC(OC(=O)NCc2ccc3c(c2)OCO3)CC2(CCCC(COC(=O)NCC3CCCCC3)O2)O1 (some centres undefined) ?
-0.0648

Which z-score reading was recorded for the compound C=CCC(OC(C)=O)[C@@H]1[C@@H](N(Cc2cc3ccccc3o2)C(=O)Cc2ccc(F)cc2)c2cc(OCCCO)ccc2N1C(=O)Cc1ccc(OC)cc1 (some centres undefined) ?
-0.0927

Which z-score reading was recorded for the compound CC1CC/C=C\[C@H]2OC34C=CCN(C(C)C)C(=O)[C@H]3N(CCCO)C(=O)[C@@H]4C2C(=O)O1 (some centres undefined) ?
0.51

Which z-score reading was recorded for the compound CCOC(=O)[C@H](CC(C)C)NC(=O)CCC1CC(OC(=O)NCc2cccc3ccccc23)CC2(CCCC(COC(=O)NCCN3CCOCC3)O2)O1 (some centres undefined) ?
-1.16

Which z-score reading was recorded for the compound COCC1=C2[C@@H](CCc3ccccc3)OB(O)C[C@@H]2n2c(=O)n(-c3ccccc3)c(=O)n2C1 ?
0.619

Which z-score reading was recorded for the compound CCOC(=O)CCN1C(=O)[C@H]2[C@H]3[C@H](O)[C@H](O)CC(=NOC[C@@H](O)COCc4ccco4)[C@@H]3CC[C@H]2C1=O ?
-0.125
